# assay.procedure: inhibitors of poly I:C-induced TLR3 signaling, primary screen, cell-based, poly I:C stimulus, luciferase, 10K MLSCN set (AID 602277)
# condition.parameters: HEK293-TLR3 RL24 IRF3 luciferase reporter, at 10 µM, stronger effect = higher value

molecule	inhibition [%]
O=C(NCCSc1c[nH]c2ccccc12)c1ccc(Br)o1	-6.47
Cn1cccc1Cc1nnc(SCC(=O)Nc2ccc(F)cc2F)n1-c1ccc(F)cc1	32.3
Cc1oc(-c2ccccc2F)nc1CS(=O)(=O)CC(=O)NCc1ccco1	22.5
CN(C)C(=O)N1CCCC(C(=O)NCc2ccccc2)C1 (stereo unspecified)	25.4
Cc1nc2ccccc2c2oc(C(=O)N3CCC(N4CCCCC4)CC3)cc12	24
Cc1ccccc1-n1c(=O)cc(N2CCN(C(=O)c3ccco3)CC2)[nH]c1=O	12.4
COc1cc2c(cc1OC)-c1nnc(-c3cccs3)n1C(C)(C)C2	18.5
CN(C(=O)c1ccc2c(=O)n3c(nc2c1)CCCCC3)c1ccccc1	8.93
CC(C)CCNC(=O)Cn1c(NCCC(C)C)nc2c1c(=O)n(C)c(=O)n2C	33.2
Cc1ccc(Cl)cc1N1CCN(C(=O)C2CCCN(S(=O)(=O)c3cnc[nH]3)C2)CC1 (stereo unspecified)	3.89
CCCCCOc1ccc(C2NC(=O)NC2=O)cc1 (stereo unspecified)	-2.6
